Data origin, for the record: PubChem BioAssay (NCI)

tested on: PC-3 prostate; assay: NCI-60 one-dose screen, 48 h; conditions: 10 µM unless noted
Compounds without any hit were thinned out: in the full panel of roughly 83,000, 20% have a hit. The source made the active and inactive calls. The calls were made as follows: active = growth percent below 10; inactive = the rest.
Outcome (select one): Yes for active, No for inactive

Look over these answered cases.
Request: Returns: the outcome recorded for `Cc1ccc2nc(CN(CCN(Cc3nc4ccc(C)cc4[nH]3)Cc3nc4ccc(C)cc4[nH]3)Cc3nc4ccc(C)cc4[nH]3)[nH]c2c1` in this assay.
Response: Yes

Request: Record request — test call for COc1ccc(-c2nsc3c2NC(=O)CC3c2ccc3c(c2)OCO3)cc1 (stereo not given)
Response: Yes

More entries:
Request: Field: outcome | Entry: `COc1ccc2[nH]c(C(=O)OCc3ccc4cccc(O)c4n3)cc2c1`
Response: Yes

Request: Test call for this compound, please: CC1C2CCC(C2)C1COCCOCCO (stereo not given)
Response: No

Request: Hi team, can someone confirm the assay call for CCCC(CCC)NCC(O)c1cc(-c2ccc(C(F)(F)F)cc2)nc(C(F)(F)F)c1 (stereo not given) ?
Response: Yes

###

tested on: SF-295 CNS; experiment: NCI-60 one-dose screen, 48 h (100 = growth as untreated, 0 = no growth, -100 = all killed); details: 10 µM unless noted
About 83,000 compounds went through this panel and 20% of them were active in at least one assay; those are over-represented in the sample as a whole.
Hi, to clarify the labels: class 1 covers growth from 70% upward, class 0 covers anything below 70%.

Worked set:
Request: Does growth meet or surpass 70% for `O=C(OCc1ccc2c(Cl)cc(Cl)c(O)c2n1)c1cc2ccccc2[nH]1` ?
Response: class 0

Request: Textbook exercise: given the entry `COc1ccc(NC(=O)/C=C/c2ccc(Cl)c(Cl)c2)cn1` , state whether its growth is greater than or equal to 70%.
Response: class 1

Request: Hi, just wondering whether `CCN(CC)c1ccc(C(=N)c2ccc(N(C)C)cc2)cc1` shows growth of 70% or higher.
Response: class 0

Could you now consider this next molecule?
Request: Form field: growth at least 70%? Entry: `CC(=O)c1ccc(Nc2nc(Cl)nc(Oc3c(Cl)cccc3Cl)n2)cc1`
Response: class 1

###

test system: CAKI-1 renal; test: NCI-60 one-dose screen, 48 h (100 = growth as untreated, 0 = no growth, -100 = all killed); settings: 10 µM unless noted
This is part of a sample that, as a whole, favours compounds with a hit. Of some 83,000 tested, about 20% had one in any assay. Calls of active or inactive are those of the source. The calls were made as follows: active = growth percent below 10; inactive = the rest.
Measured endpoint: growth

Reference set (5 entries):
Request: Query (compound): `O=S(=O)(NCC[C@@H]1C[C@H]1c1ccc2ccccc2c1)c1ccc(C(F)(F)F)cc1` ; field requested: growth
Response: 79.4% (inactive)

Request: growth for C#CC[C@@H]1C[C@]2(C)[C@H]3CC[C@@H]4[C@H]5C(C(=C)C)CC[C@]5(C(=O)NCCCCN)CC[C@@]4(C)[C@]3(C)CC[C@H]2C(C)(C)[C@H]1OC(C)=O (stereo not given in full) ?
Response: -98.8% (active)

Request: Which growth reading was recorded for the compound CCCCCCCCCCC(C(O)c1ccccc1)N1CCCCC1 (stereo not given) ?
Response: -21.1% (active)

Request: Fill in the blank: the reported growth of C=C1NC(=O)C(C(C)CC)NC(=O)C2CSCC(NC(=O)CCC(=O)O)C(=O)NC(Cc3ccccc3)C(=O)NC(C)C(=O)NC(CC(C)CC)C(=O)NC(C(=O)NC(Cc3ccccc3)C(=O)N3CCCC3C(=O)N2)C(C)OC(=O)C(CO)NC(=O)C(C(O)COC)N(C)C(=O)C(C(C)C)NC(=O)C(CC(C)CC)NC1=O (stereo not given) is ____.
Response: 33.1% [6 µM] (inactive)

Request: Entry under review: `CN1CCN(Cc2ccc(NC(=O)c3cncc(C#Cc4cnc5cccnn45)c3)cc2C(F)(F)F)CC1` . Reported growth?
Response: 5.93% (active)

Would you be so kind as to report growth for each listed record?
1. COc1ccc2cc(-c3nc(C)c(C(C)=O)c(-c4ccc(C)cc4)n3)ccc2c1
2. COc1ccc(C2CC(c3cccc(Nc4ccnc5cc(Cl)ccc45)c3)=NN2c2ccc(Cl)cc2)cc1 (stereo not given)
3. CC(=O)O[C@H]1[C@H](CC#CC#CC[C@@H]2C[C@]3(C)[C@H]4CC=C5[C@H]6[C@@H](C)[C@H](C)CC[C@]6(C(=O)NCCN(CCN)CCN)CC[C@@]5(C)[C@]4(C)CC[C@H]3C(C)(C)[C@H]2OC(C)=O)C[C@]2(C)[C@H]3CC=C4[C@H]5[C@@H](C)[C@H](C)CC[C@]5(C(=O)NCCN(CCN)CCN)CC[C@@]4(C)[C@]3(C)CC[C@H]2C1(C)C
4. COc1cc(C2CC(c3cccc(Nc4ccnc5cc(Cl)ccc45)c3)=NN2c2ccc(Cl)cc2)cc(OC)c1OC (stereo not given)
5. CC1(C)C(N(O)C(=O)Nc2ccc(Cl)cc2)N(c2ccc(Cl)cc2)C(=O)N1CC(=O)N/N=C/C=C/c1ccc([N+](=O)[O-])o1 (stereo not given)
6. CCCCCc1c(C)[nH]c(/C=C2\N=C(c3ccc[nH]3)C=C2CC)c1C
7. CCCCCCCCCCCCCCCCCC1=NC(C)(C)CN1C(C)(C)CO

Response:
["79.5% (inactive)", "1.94% (active)", "35% (inactive)", "-1.85% (active)", "68% (inactive)", "-82.1% (active)", "-65.2% (active)"]

Please look at the items below and tell me growth for each one, in order.
1. COc1ccc(C(=O)c2c(N)nc3n2CCCC3)cc1OC
2. N[C@@H](CO)C(=O)O
3. Cc1ccc(Nc2nc(NCCO)c3ccccc3n2)cc1C

Response:
["93.9% (inactive)", "91.2% (inactive)", "2.38% (active)"]

###

system: RPMI-8226 leukemia; assay: NCI-60 one-dose screen, 48 h; details: 10 µM unless noted
The panel holds about 83,000 compounds, 20% with a hit somewhere; the sample as a whole holds those more often. Activity calls are given as the source filed them. The calls were made as follows: active = growth percent below 10; inactive = the rest.
Use one of these outcomes when replying: active, inactive

Request: Recorded test outcome, item `O=C(Nc1ccc(Oc2ccc(Nc3nc4ccccc4s3)cc2)cc1)Nc1ccc(Cl)c(C(F)(F)F)c1`
Response: active

Request: Just curious, what result did `C=CCn1c(SCC(=O)Nc2ccc(C(=O)/C=C/c3ccc(Cl)cc3)cc2)nnc1-c1ccc(Cl)cc1` get here?
Response: inactive

Request: What did the test return for `Cc1ccc2cc3c(NC(=O)c4cccnc4)nn(C)c3nc2c1` ?
Response: inactive

Others:
Request: Per the records of this test, what outcome belongs to `O=Cc1ccc2nc(C(Cl)(Cl)Cl)ccc2c1` ?
Response: inactive

Request: Recorded call for `COc1cc(C)c2c(=O)c3c(oc2c1)C(=O)c1c(O)c(OC)cc(O)c1C3=O` ?
Response: active

Request: Hi, do you know how `CC(C)c1[nH]ncc1-c1nc2ccc3[nH]ncc3c2c2c1CCCC2` came out in this test?
Response: inactive

Request: Hi, sorry to bother you, what did the test record for `CCCCN(CCCC)CCC(=O)c1ccc(OC)c2ccccc12` ?
Response: inactive

Request: Write down the call the test reported for this compound. Item: `CC1=C(O)C(=O)C(c2c(C)cc(C)c(Br)c2C)=C(O)C1=O`
Response: inactive

Request: Record request — test call for `C=CCn1c(C)nc2cc(Nc3nc(Nc4ccc5nc(C)n(CC=C)c5c4)nc4ccccc34)ccc21`
Response: inactive

Request: Dear all, I need the recorded test outcome for `CCN(CC)C(Cl)=Nc1ccc(Cl)cc1` , thank you.
Response: inactive

###

tested on: HS 578T breast; test: NCI-60 one-dose screen, 48 h (100 = growth as untreated, 0 = no growth, -100 = all killed); details: 10 µM
The panel holds about 83,000 compounds, 20% with a hit somewhere; the sample as a whole holds those more often.
Please provide measured growth for the entries that follow.
Numbers only, in %.

Worked examples, 3 compounds total:
Request: Give the measured growth of `Fc1ccc2c(CN3CCO[C@H](COc4cccc(Cl)c4)C3)c[nH]c2c1` .
Response: 64.8

Request: What growth value was documented for this compound, `COc1ccc(NC(=O)/C=C/c2ccc(Cl)c(Cl)c2)cn1` ?
Response: 92.6

Request: Which growth reading was recorded for the compound `Cc1cc(O)ccc1C1=NN(c2ccc(S(N)(=O)=O)cc2)C(=O)CC1` ?
Response: 18.8

Record growth for all entries; do not skip any.
1. COc1cc2c(cc1OC)C(=O)OC2
2. COc1ccc(-c2nsc3c2NC(=O)CC3c2cccc(F)c2)cc1 (stereo not given)

Response:
1: 109; 2: 79.1

Could I get growth for every one of these entries?
1. CC1=C(C(=O)Nc2ccc(F)cc2)C(c2ccccc2)C2=C(CC(C)(C)CC2=O)N1 (stereo not given)
2. COc1cc(C2C=C(C)N=C3SC=NN32)cc(OC)c1OC (stereo not given)
3. CCN(CC)C(Cl)=Nc1ccc(Cl)cc1
4. C#CC[C@@H]1C[C@]2(C)[C@H]3CC=C4[C@H]5[C@@H](C)[C@H](C)CC[C@]5(C(=O)NCCCCN)CC[C@@]4(C)[C@]3(C)CC[C@H]2C(C)(C)[C@H]1OC(C)=O
5. O=NN(CC(=O)NNc1ccccc1)CC(=O)NNc1ccccc1

Response:
1. 82.5
2. 106
3. 101
4. 102
5. 94.2

For every listed record, write down its growth.
1. CC(=O)c1cccc(Nc2ncnc3ccc(NC(=O)c4ccco4)cc23)c1
2. C#CC[C@@H]1C[C@]2(C)[C@H]3CC[C@@H]4[C@H]5C(C(=C)C)CC[C@]5(C(=O)NCCCN5CCN(CCCN)CC5)CC[C@@]4(C)[C@]3(C)CC[C@H]2C(C)(C)[C@H]1OC(C)=O (stereo not given in full)
3. O=C1OCC2=C1C(c1cccc(Br)c1)c1cc3c(cc1N2CCO)OCCO3 (stereo not given)
4. N=c1n(Cc2ccccc2)c(N)cc(=O)n1Cc1ccccc1
5. Cc1ccc(NC(=O)c2nc(S(C)=O)oc2-c2ccc(F)cc2)cc1Nc1nccc(-c2cccnc2)n1 (stereo not given)

Response:
[102, 14.8, 8.74, -1.73, 82]
